Give measured remaining at 1.5 h, 1 µM for each item. Keep answers brief.
assay-name: Percentage of parent compound remaining after incubation for 90 minutes with cyropreserved mouse hepatocytes at a concentration of 1uM compound and […], determined by LCMS
Type: ADME, tissue-based, Hepatocyte
experimental-parameters: cryopreserved mouse hepatocytes, read-out: Stability
Answers are plain numbers, in %.

Solved entries:
Fc1c(-c2c(C(F)(F)F)nc3cnc(-c4cccc(OC(F)(F)F)c4)cn23)ccc2[nH]ncc12: 88.7
Oc1cc(F)c(-c2c(C3CC3)nc3cnc(-c4ccc(F)c(C(F)(F)F)c4)cn23)c(F)c1: 53
CC(C)c1cccc(-c2cn3c(-c4ccc5[nH]ncc5c4F)c(C(F)(F)F)nc3cn2)c1: 16.7
Fc1ccc(-c2cn3c(-c4ccc5[nH]ncc5c4F)c(C(F)(F)F)nc3cn2)cc1OC(F)(F)F: 94.2
CCc1nc2cnc(-c3ccc(F)c(C(C)C)c3)cn2c1-c1ccc2[nH]ncc2c1F: 59.3
CC(C)c1nc2cnc(-c3ccc(F)c(C(F)(F)F)c3)nc2n1-c1c(F)cc(O)cc1F: 12.5
CC(C)c1nc2cnc(-c3ccc(F)c(C(F)(F)F)c3)cn2c1-c1c(F)cc(OP(=O)(O)O)cc1F: 0.9
CC1(c2nc3cnc(-c4ccc(F)c(C(F)(F)F)c4)cn3c2-c2c(F)cc(O)cc2F)CC1: 41.7

Kindly note the recorded remaining at 1.5 h, 1 µM for "CCc1nc2cnc(-c3ccc(F)c(C(F)(F)F)c3)cn2c1-c1c(F)cc(O)cc1F" , which is 36
